The measured values listed here are drawn from PubChem BioAssay AID1259343.

Listed next: entries and their corresponding inhibition.
- TEST_SUMMARY: Mycobacterium tuberculosis growth inhibition, primary screen (AID 1259343)
- MEASUREMENT_CONTEXT: at 10 µM, hits give high values
The campaign covered roughly 6,200 compounds. About 2,900 (47%) were called active. The set was probably picked from earlier hits. This is one part of the list.

COMPOUND	inhibition, %
NS(=O)(=O)c1ccc2c(c1)CCN2Cc1cc(F)cc2c1OCOC2	3.61
Cn1ccnc1Sc1nc(-c2ccccn2)nc2scc(-c3ccccc3)c12	77.2
CC(C)Oc1ccc(C(=O)Nc2ccc3c(c2)oc(=O)n3C)cn1	92.7
Cc1cccc(OCCC(=O)Nc2ccc3c(c2)oc(=O)n3C)c1C	15.8
O=C(Nc1cccc2cnccc12)OCC(F)(F)F	72.3
CCOc1ccc(Br)cc1S(=O)(=O)Oc1cccc2c1OC(C)(C)C2	23.4
COc1ccc(Br)cc1S(=O)(=O)Oc1ccc2ccccc2c1	95.9
COc1cccc2c1C(=O)c1c(O)c3c(c(O)c1C2=O)C[C@@](O)(C(C)=O)C[C@@H]3O[C@H]1C[C@H](N)[C@H](O)[C@H](C)O1	38.2
CC(C)c1cc(C(=O)N2CCOC(CCc3ccccc3)C2)no1 (stereo not given)	56.6
Cc1cc(NC(=O)C23CC4CC(CC(C4)C2)C3)n(-c2nc3c(c(=O)[nH]2)CCC3)n1	101

---

- TEST_SUMMARY: Mycobacterium tuberculosis growth inhibition, primary screen (AID 1259343)
- MEASUREMENT_CONTEXT: at 10 µM, hits give high values
Screen size: about 6,200 compounds; about 2,900 (47%) were called active. The set was probably picked from earlier hits. Some of the results follow.
We use -20% as the dividing line for inhibition: on or above the line is Fulfilled, below is Not fulfilled.

TEST_SMILES	LABEL
O=C(CN1C(=O)CC2(CCCC2)C1=O)c1ccc(Cl)s1	Not fulfilled
COc1ccccc1CC(=O)N1CCC(n2nc(-c3ccccc3)cc2-c2ccccc2)CC1	Fulfilled
FC(F)(F)c1nnc2ccc(NCCC3CCCC3)nn12	Fulfilled
CCOc1ccc2nc(NC(=O)c3ccc(C)o3)sc2c1	Fulfilled
Cc1ccc(C)c(-n2nnnc2SCCCC(=O)c2cccs2)c1	Not fulfilled

---

- TEST_SUMMARY: Mycobacterium tuberculosis growth inhibition, primary screen (AID 1259343)
- MEASUREMENT_CONTEXT: at 10 µM, hits give high values
The campaign covered roughly 6,200 compounds. About 2,900 (47%) were called active. The set was probably picked from earlier hits. The list shows a part of the results.
# reported inhibition; entries follow
REPORTED_PROPERTY: inhibition (%)

COMPOUND	MEAS_VALUE
CCCNC(=O)C(C)NC(=O)c1ccc(Oc2ccc(F)cc2)cc1 (configuration not stated)	62.5
O=C(NC1(c2ccccc2)CC1)c1cc(COc2cccc(C(F)(F)F)c2)on1	88.1
CC(C)(C)OC(=O)Nc1ccc(Nc2cc(-c3ccc(F)c(F)c3)ncn2)cc1	16.4
CC(C)(C)c1ccc(C(=O)N2CCC2(C)C(=O)Nc2cccc3c2CCCC3)cc1 (configuration not stated)	0.45
Cc1ccc(Oc2ccc(NC(C)C(=O)NC(C)C)cc2)cc1 (configuration not stated)	30.7
CCc1nc(C)c(C(=O)Nc2ccc(CCC(F)(F)F)cc2)s1	66.2
O=C(c1cc(COc2ccc(-n3cncn3)cc2)on1)N1CCC(c2ccncc2)CC1	35.6
O=C(CN(C1CCCCC1)C1CC1)Nc1ccc(Cl)cn1	37.5
CC(C)C(=O)N1CCC1(C)C(=O)Nc1ccc(-n2cccc2)cc1 (configuration not stated)	92.6
CCOC(=O)C1(CCCc2ccccc2)CCN(C(=O)CC2=CCCCC2)CC1	16.7
Cc1cc(-c2nc3cccnc3s2)ccc1NS(=O)(=O)c1ccc(F)cc1F	74.7
C#CCN(CC=C)C(=O)c1cc(COc2cccc(C(F)(F)F)c2)on1	26.3
CCc1ccc(-c2nc(C)c(C(=O)Nc3ccc(OC)nc3)s2)cc1	42.7
Cc1cc(C)cc(NC(=O)CCC(=O)c2ccc3ccccc3c2)c1	72.2
Cc1cccc(C2(O)CCN(C(=O)CCc3ccccc3)CC2)c1C	75.2
O=C(CCC(F)(F)F)N1CCC(CO)(CCc2ccccc2)CC1	25.8
COc1cccc(-n2nnc3c(SCc4cccnc4)ncnc32)c1	74.8
CCCC(=O)OCC(=O)Nc1ccc2ccccc2c1	33.2
CC(Nc1cccc(OC(F)(F)F)c1)C(=O)Nc1cccnc1Cl (configuration not stated)	-51.8
O=C(OCC(=O)N1CCN(c2ccc(F)cc2)CC1)c1ccc(O)cc1	87.3
Cc1cc(=O)[nH]c(-n2nc(C)cc2NC(=O)COc2ccc(F)cc2)n1	99.8
COc1ccc(-c2cc(Nc3ccc(NC(=O)OC(C)(C)C)cc3)ncn2)cc1	4.04
